src = patent US10487116B2

# Test system: HLA-DR5
# Test Description: ProImmune REVEAL MHC-peptide binding assay
# Set-up: species or system human
# Stated Conditions: compared to the positive control peptide, time 0

Substance	Relative Binding Score HLA-DR5
INNYTPDMNREDVDYAIR (listed as Homo sapiens) [SEQ ID NO 76]	0.04
TNGVIHVVDKLLYPADT (listed as Homo sapiens) [SEQ ID NO 77]	0.08
BIR-002: class II peptide with known immunogenicity, IMA950 peptide (TLGEFLKLDRERAKN) [reference compound]	103.9
MET-005: class II peptide with known immunogenicity, IMA950 peptide (TFSYVDPVITSISPKYG) [reference compound]	0.12

----------
# System: CD8+ T cells
# Test Description: In vitro T-cell priming assay (aAPCs loaded with peptide/MHC and anti-CD28, pMHC multimer readout)
# Format: cell-based, human
# Stated Conditions: in vitro immunogenicity, responding healthy donors; trifluoro-acetate salts of the peptides

Substance	Donors
69 (AMSSKFFLV; listed as Homo sapiens) [compound 69]	+++ (50%-70%, +++)
80 (SLFGNSGILENV; listed as Homo sapiens) [compound 80]	++ (20%-49% = ++)
10 (VLSVVEVTL; listed as Homo sapiens) [compound 10]	++ (20%-49% = ++)
87 (RVLPPSALQSV; listed as Homo sapiens) [compound 87]	+++ (50%-70%, +++)
59 (ILVSWLPRL; listed as Homo sapiens) [compound 59]	+++ (50%-70%, +++)
43 (ALFPHLLQPV; listed as Homo sapiens) [compound 43]	+++ (50%-70%, +++)
35 (VLFPNLKTV; listed as Homo sapiens) [compound 35]	++ (20%-49% = ++)
3 (ALDENLHQL; listed as Homo sapiens) [compound 3]	++ (20%-49% = ++)
52 (ALLERGYSL; listed as Homo sapiens) [compound 52]	+ (<20% = +)
62 (ILFPDIIARA; listed as Homo sapiens) [compound 62]	++++ (>70 = ++++)
74 (SLLAQNTSWLL; listed as Homo sapiens) [compound 74]	+++ (50%-70%, +++)
2 (KIQEMQHFL; listed as Homo sapiens) [compound 2]	++ (20%-49% = ++)
70 (KILEDVVGV; listed as Homo sapiens) [compound 70]	+++ (50%-70%, +++)
9 (ALMDKEGLTAL; listed as Homo sapiens) [compound 9]	+ (<20% = +)
7 (TLWYRAPEV; listed as Homo sapiens) [compound 7]	++++ (>70 = ++++)
38 (SLHFLILYV; listed as Homo sapiens) [compound 38]	++ (20%-49% = ++)
46 (TLTNIIHNL; listed as Homo sapiens) [compound 46]	+++ (50%-70%, +++)
22 (FLIPIYHQV; listed as Homo sapiens) [compound 22]	+++ (50%-70%, +++)
86 (AMATESILHFA; listed as Homo sapiens) [compound 86]	++ (20%-49% = ++)
68 (YVYQNNIYL; listed as Homo sapiens) [compound 68]	+ (<20% = +)
42 (SLWGGDVVL; listed as Homo sapiens) [compound 42]	++++ (>70 = ++++)
40 (GLTDNIHLV; listed as Homo sapiens) [compound 40]	++ (20%-49% = ++)
75 (ALYDSVILL; listed as Homo sapiens) [compound 75]	++ (20%-49% = ++)
19 (AVVEFLTSV; listed as Homo sapiens) [compound 19]	++ (20%-49% = ++)
56 (SLYKGLLSV; listed as Homo sapiens) [compound 56]	++++ (>70 = ++++)
32 (KLSWDLIYL; listed as Homo sapiens) [compound 32]	+++ (50%-70%, +++)
63 (SLAGDVALQQL; listed as Homo sapiens) [compound 63]	++ (20%-49% = ++)
85 (KIVDFSYSV; listed as Homo sapiens) [compound 85]	++++ (>70 = ++++)
44 (NLLAEIHGV; listed as Homo sapiens) [compound 44]	++ (20%-49% = ++)

----------
# Measured Target: HLA-A*0201 (Homo sapiens, UniProt P04439, D140Y/D185E/D98H/E176V/E277Q/G131W/G231S/I119V/I121R/I166T/I218V/L300P/L318F/N151K/N90K/P208A/P217A/Q86G/Q94H/R138H/R169H/T345S)
# Test Description: UV-ligand exchange with ELISA of stabilized MHC complexes
# Type: binding
# Stated Conditions: class symbol
Measure Name: Exchange yield

Biopolymer Sequence	Measure Name	Observed Result
ALFPHLLQPV (listed as Homo sapiens) [SEQ ID NO 43]	Exchange yield	+++ (50%-70%, +++)
RLLJAAENFL (RLLAAENFL; listed as Homo sapiens) [SEQ ID NO 49]	Exchange yield	++ (20%-49% = ++)
GVLENIFGV (listed as Homo sapiens) [SEQ ID NO 47]	Exchange yield	++++ (>70 = ++++)
FLIPIYHQV (listed as Homo sapiens) [SEQ ID NO 22]	Exchange yield	+++ (50%-70%, +++)
RLLGPSAAADILQL (listed as Homo sapiens) [SEQ ID NO 17]	Exchange yield	++ (20%-49% = ++)
ILFPDIIARA (listed as Homo sapiens) [SEQ ID NO 62]	Exchange yield	++++ (>70 = ++++)
SLLPVDIRQYL (listed as Homo sapiens) [SEQ ID NO 50]	Exchange yield	+++ (50%-70%, +++)
AIDGNNHEV (listed as Homo sapiens) [SEQ ID NO 31]	Exchange yield	++ (20%-49% = ++)
YLIHFPVSV (listed as Homo sapiens) [SEQ ID NO 13]	Exchange yield	+ (<20% = +)
SLYDNQITTV (listed as Homo sapiens) [SEQ ID NO 78]	Exchange yield	++ (20%-49% = ++)
ILQDRLNQV (listed as Homo sapiens) [SEQ ID NO 67]	Exchange yield	++ (20%-49% = ++)
AILDTLYEV (listed as Homo sapiens) [SEQ ID NO 21]	Exchange yield	++ (20%-49% = ++)
ALLRTVVSV (listed as Homo sapiens) [SEQ ID NO 33]	Exchange yield	++++ (>70 = ++++)
YLAPFLRNV (listed as Homo sapiens) [SEQ ID NO 51]	Exchange yield	+++ (50%-70%, +++)
SLIDADPYL (listed as Homo sapiens) [SEQ ID NO 58]	Exchange yield	+++ (50%-70%, +++)
GLTDNIHLV (listed as Homo sapiens) [SEQ ID NO 40]	Exchange yield	+++ (50%-70%, +++)
ILVSWLPRL (listed as Homo sapiens) [SEQ ID NO 59]	Exchange yield	++++ (>70 = ++++)
KLSWDLIYL (listed as Homo sapiens) [SEQ ID NO 32]	Exchange yield	+++ (50%-70%, +++)
SLIEDLILL (listed as Homo sapiens) [SEQ ID NO 12]	Exchange yield	++ (20%-49% = ++)
AIMGFIGFFV (listed as Homo sapiens) [SEQ ID NO 45]	Exchange yield	+ (<20% = +)
SLYKGLLSV (listed as Homo sapiens) [SEQ ID NO 56]	Exchange yield	++ (20%-49% = ++)
KVLEILHRV (listed as Homo sapiens) [SEQ ID NO 65]	Exchange yield	+++ (50%-70%, +++)
SLVAVELEKV (listed as Homo sapiens) [SEQ ID NO 90]	Exchange yield	+++ (50%-70%, +++)
ALWEKNTHL (listed as Homo sapiens) [SEQ ID NO 82]	Exchange yield	+++ (50%-70%, +++)
GLYPDAFAPV (listed as Homo sapiens) [SEQ ID NO 25]	Exchange yield	+++ (50%-70%, +++)
